Assay: intravenous acute tolerability (LD50) on the mouse
Conditions: in vivo
test readout: LD50 (µmol/kg)
Write it as a number; the unit µmol/kg goes unstated.

INPUT: Entry under review: O=C(O)c1cc(C(=O)O)cc(S(=O)(=O)Nc2ccc(F)cc2C(F)(F)F)c1 [Example 13] . Reported LD50?
OUTPUT: 4000
